# test target: recombinant alpha-glucosidase II (murine full-length glucosidase II, alpha and beta subunits, Glu 2) (Mus musculus, UniProt Q8BHN3)
# Construct: made in house; host or cells: HEK-293T cells transduced with BacMam viruses (75% alpha, 25% beta); protein harvested from culture supernatant
# Sequence (O08795 15-521): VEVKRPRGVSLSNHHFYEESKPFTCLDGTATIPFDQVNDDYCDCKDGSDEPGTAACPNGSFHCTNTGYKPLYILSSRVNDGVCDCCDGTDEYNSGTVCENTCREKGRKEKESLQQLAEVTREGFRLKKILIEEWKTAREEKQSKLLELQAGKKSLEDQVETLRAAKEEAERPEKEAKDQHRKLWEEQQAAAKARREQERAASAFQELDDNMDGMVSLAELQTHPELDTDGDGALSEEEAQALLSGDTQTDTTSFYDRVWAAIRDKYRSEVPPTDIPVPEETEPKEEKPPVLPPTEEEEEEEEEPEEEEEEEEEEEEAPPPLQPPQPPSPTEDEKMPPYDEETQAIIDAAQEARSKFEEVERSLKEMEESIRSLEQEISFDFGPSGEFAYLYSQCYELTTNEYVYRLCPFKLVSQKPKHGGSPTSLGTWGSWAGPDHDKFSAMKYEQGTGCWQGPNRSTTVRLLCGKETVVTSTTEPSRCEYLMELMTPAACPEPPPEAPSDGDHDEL
# Sequence (Q8BHN3 33-944): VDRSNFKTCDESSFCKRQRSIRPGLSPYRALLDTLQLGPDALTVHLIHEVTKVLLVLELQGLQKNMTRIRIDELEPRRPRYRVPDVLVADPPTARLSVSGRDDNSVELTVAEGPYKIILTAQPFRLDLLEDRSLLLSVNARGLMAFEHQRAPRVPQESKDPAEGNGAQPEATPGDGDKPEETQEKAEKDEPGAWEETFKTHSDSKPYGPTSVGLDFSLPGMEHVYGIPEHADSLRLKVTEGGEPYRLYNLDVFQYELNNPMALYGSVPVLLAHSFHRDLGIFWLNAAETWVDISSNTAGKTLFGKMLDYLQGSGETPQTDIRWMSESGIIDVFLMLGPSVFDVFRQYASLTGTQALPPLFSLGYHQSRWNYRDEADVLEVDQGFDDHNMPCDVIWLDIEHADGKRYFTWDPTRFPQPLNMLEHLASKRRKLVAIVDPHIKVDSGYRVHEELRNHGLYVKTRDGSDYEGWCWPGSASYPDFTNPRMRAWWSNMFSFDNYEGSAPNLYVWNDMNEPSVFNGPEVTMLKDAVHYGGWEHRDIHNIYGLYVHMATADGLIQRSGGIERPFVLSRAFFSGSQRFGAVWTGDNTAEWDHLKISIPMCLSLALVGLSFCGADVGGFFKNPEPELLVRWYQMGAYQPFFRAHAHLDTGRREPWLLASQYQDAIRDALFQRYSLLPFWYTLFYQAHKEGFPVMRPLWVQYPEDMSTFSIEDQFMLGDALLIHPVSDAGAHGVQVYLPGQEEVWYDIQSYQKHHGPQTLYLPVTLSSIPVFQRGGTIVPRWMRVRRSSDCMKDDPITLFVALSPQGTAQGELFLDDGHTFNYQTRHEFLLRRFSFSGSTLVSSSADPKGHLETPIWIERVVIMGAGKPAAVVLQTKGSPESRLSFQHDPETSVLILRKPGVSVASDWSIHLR
# test description: Alpha-glucosidase II assay (4-methylumbelliferyl-alpha-D-pyranoside substrate, fluorescence)
# Type: biochemical
# condition details: Glucosidase 2; read-out: Glu2 IC50
pIC50: −log10 of the molar value.
measurement type: pIC50

> print(dat)
                                   compound  assay.value
1  N#Cc1cc(NCc2cccc(CN3C[C@H](O)[C@@H](O)[C@H](O)[C@H]3CO)c2)cc(-c2ccc[nH]2)c1 [Compound 1045]         5.11
2  O=[N+]([O-])c1cc(-c2ncccn2)ccc1NCc1cccc(CN2C[C@H](O)[C@@H](O)[C@H](O)[C@H]2CO)c1 [Compound 1090]         4.86
3  Cc1cc(NCc2cccc(CN3C[C@H](O)[C@@H](O)[C@H](O)[C@H]3CO)c2)cc(N2CCOCC2)c1 [Compound 1031]         4.97

###

compounds and their reported pIC50
# test target: recombinant alpha-glucosidase II (murine full-length glucosidase II, alpha and beta subunits, Glu 2) (Mus musculus)
# Construct: made in house; host or cells: HEK-293T cells transduced with BacMam viruses (75% alpha, 25% beta); protein harvested from culture supernatant
# test description: Alpha-glucosidase II assay (4-methylumbelliferyl-alpha-D-pyranoside substrate, fluorescence)
# Format: biochemical
# condition details: Glucosidase 2; read-out: Glu2 IC50
pIC50: −log10 of the molar value.
measurement type: pIC50

> print(dat)
                                    compound  comparison.sign  assay.value
 1  O=[N+]([O-])c1cc(C2=COCCO2)ccc1NCc1ccc(CN2C[C@H](O)[C@@H](O)[C@H](O)[C@H]2CO)cc1 [Compound 1099]                >         9.00
 2  OC[C@@H]1[C@@H](O)[C@H](O)[C@@H](O)CN1Cc1cccc(CNc2cc(-c3ncccn3)cc(C3CC3)c2)n1 [Compound 1333]                <         4.00
 3  COc1cc(NCCCCCCN2C[C@H](O)[C@@H](O)[C@H](O)[C@H]2CO)cc(C2=CCCO2)c1 [Compound 1147]                =         7.47
 4  COc1cc(NCCc2ccc(CCN3C[C@H](O)[C@@H](O)[C@H](O)[C@H]3CO)cc2)cc(C2=CCOCC2)c1 [Compound 1154]                =         8.70
 5  [N-]=[N+]=Nc1ccc(NCc2cc(CCN3C[C@H](O)[C@@H](O)[C@H](O)[C@H]3CO)cs2)c([N+](=O)[O-])c1 [Compound 1174]                >         9.00
 6  O=[N+]([O-])c1cc(-c2ncccn2)ccc1NCCc1ccc(CCN2C[C@H](O)[C@@H](O)[C@H](O)[C@H]2CO)cc1 [Compound 1111]                =         8.00
 7  O=[N+]([O-])c1cc(-c2ccc[nH]2)ccc1NCc1cccc(CN2C[C@H](O)[C@@H](O)[C@H](O)[C@H]2CO)c1 [Compound 1088]                =         5.20
 8  N#Cc1cc(NCc2ccc(CN3C[C@H](O)[C@@H](O)[C@H](O)[C@H]3CO)cc2)cc(-c2ccc[nH]2)c1 [Compound 1063]                =         7.15
 9  OC[C@@H]1[C@@H](O)[C@H](O)[C@@H](O)CN1CCCCCCNc1cc(-c2ncccn2)cc(C2CC2)c1 [Compound 1009]                =         7.77
10  [N-]=[N+]=Nc1ccc(NCCc2ccc(CCN3C[C@H](O)[C@@H](O)[C@H](O)[C@H]3CO)cc2)c([N+](=O)[O-])c1 [Compound 1200]                =         8.22
11  [N-]=[N+]=Nc1ccc(NCC[C@H]2CC[C@H](CCN3C[C@H](O)[C@@H](O)[C@H](O)[C@H]3CO)CC2)c([N+](=O)[O-])c1 [Compound 1107]                =         7.39
12  COc1cc(NCCCCCCN2C[C@H](O)[C@@H](O)[C@H](O)[C@H]2CO)cc(-c2ncc[nH]2)c1 [Compound 1219]                =         7.74
